FYI, the data here is from the supplement of paper PMC3334620.

Could you please report measured PBM E-score for the items listed next?
# Target Or Test System: Pdr3 (UniProt P33200)
# Sequence: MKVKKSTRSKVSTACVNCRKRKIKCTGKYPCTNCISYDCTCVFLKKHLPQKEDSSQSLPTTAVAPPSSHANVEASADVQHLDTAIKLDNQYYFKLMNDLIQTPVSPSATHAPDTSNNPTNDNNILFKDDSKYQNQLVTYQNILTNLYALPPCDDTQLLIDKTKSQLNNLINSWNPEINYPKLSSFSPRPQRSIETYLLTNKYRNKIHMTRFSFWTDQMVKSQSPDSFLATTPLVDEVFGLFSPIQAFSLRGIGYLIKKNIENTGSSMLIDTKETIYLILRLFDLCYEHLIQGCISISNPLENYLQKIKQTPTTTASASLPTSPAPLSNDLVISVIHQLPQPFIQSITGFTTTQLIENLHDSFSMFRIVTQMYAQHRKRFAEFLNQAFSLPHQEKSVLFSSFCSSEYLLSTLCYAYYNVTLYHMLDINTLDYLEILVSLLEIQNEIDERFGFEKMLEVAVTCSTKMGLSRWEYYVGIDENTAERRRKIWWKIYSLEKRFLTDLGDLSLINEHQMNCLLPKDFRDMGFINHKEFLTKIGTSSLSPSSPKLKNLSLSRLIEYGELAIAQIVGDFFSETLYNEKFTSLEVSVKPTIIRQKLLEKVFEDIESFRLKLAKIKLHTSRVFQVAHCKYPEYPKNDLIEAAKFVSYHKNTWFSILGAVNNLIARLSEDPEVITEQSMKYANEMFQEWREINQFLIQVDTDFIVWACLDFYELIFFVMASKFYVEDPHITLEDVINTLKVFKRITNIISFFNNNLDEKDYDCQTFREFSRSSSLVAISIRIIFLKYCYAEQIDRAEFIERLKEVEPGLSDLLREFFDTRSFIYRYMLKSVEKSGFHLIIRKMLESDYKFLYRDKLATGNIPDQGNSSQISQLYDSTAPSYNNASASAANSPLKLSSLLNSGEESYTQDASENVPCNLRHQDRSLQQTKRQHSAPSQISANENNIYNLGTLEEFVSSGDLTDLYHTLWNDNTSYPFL
# Assay Details: PBM E-score (8-mer binding enrichment) (E-score (-0.5 to 0.5)); higher = stronger / more preferred TF binding
# Test Conditions: protein concentration: 200 nM; construct: GST-full length
In all, about 33,000 sequences were measured (“E-score (-0.5 to 0.5)”: median about -0.035, highest 2% from about 0.35 on). The list comes from a sample in which the highest values are over-represented; it also holds close analogues and randomly drawn sequences.
Numbers only.

> print(dat)
   seq.text  target.or.test.system  readout.value
1  CCCGGGTA  Pdr3 (UniProt P33200)          0.438
2  AGTCTCGG  Pdr3 (UniProt P33200)          0.101
3  ACCTCCTA  Pdr3 (UniProt P33200)         -0.192
4  ACAACACG  Pdr3 (UniProt P33200)         0.0551

Value sought for every listed sequence: PBM E-score.
1. TCGTACGA
2. AAGGAACT

Result:
[-0.293, 0.0764]

Would you mind listing PBM E-score for each of the following sequences?
1. AGTCCGGA
2. AACGGTAG
3. GGATTCCC
4. CCGGGGTC
5. AACGGAGC

Result:
1. 0.422
2. 0.0653
3. 0.231
4. 0.327
5. 0.275

Value sought for every listed sequence: PBM E-score.
1. CGTCCGGA
2. CGTCCGAA
3. ACCGGGTA
4. AATGGAAG
5. CGGGAACC
6. ACGGAACC
7. CTAGGTGC

Result:
1: 0.433; 2: 0.208; 3: 0.154; 4: 0.0364; 5: 0.312; 6: 0.487; 7: -0.121

Give measured PBM E-score for every item shown.
1. GGTCCGGA
2. AACGGAAG
3. AGTCCGGC
4. AACGGAGG

Result:
1: 0.413; 2: 0.423; 3: 0.216; 4: 0.185

* * *

# Target Or Test System: Pdr3 (UniProt P33200)
# Sequence: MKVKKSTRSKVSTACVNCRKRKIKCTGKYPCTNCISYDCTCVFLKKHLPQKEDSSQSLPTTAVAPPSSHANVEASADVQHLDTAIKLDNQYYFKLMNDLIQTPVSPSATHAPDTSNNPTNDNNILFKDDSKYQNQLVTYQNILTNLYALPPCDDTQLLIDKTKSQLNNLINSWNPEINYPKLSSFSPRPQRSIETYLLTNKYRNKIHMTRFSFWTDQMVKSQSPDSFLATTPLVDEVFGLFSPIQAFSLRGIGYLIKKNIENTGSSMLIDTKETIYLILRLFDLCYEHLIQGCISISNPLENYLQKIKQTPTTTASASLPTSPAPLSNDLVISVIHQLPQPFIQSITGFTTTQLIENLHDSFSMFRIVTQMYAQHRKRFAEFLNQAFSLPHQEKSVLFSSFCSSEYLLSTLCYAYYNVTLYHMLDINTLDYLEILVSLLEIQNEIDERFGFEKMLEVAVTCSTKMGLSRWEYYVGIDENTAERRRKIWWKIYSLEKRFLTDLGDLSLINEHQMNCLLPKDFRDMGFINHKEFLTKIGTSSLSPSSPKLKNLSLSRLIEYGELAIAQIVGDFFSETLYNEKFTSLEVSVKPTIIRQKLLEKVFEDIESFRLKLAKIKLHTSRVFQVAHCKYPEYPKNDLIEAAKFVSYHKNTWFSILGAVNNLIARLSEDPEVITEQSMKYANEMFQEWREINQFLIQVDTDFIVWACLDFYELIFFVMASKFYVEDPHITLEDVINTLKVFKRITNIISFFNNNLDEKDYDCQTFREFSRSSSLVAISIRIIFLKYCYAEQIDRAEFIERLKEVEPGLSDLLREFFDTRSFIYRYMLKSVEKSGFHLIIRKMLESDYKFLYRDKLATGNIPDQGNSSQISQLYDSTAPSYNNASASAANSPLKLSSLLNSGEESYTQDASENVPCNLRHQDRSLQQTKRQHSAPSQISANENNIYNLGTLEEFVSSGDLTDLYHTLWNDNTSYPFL
# Assay Details: PBM E-score (8-mer binding enrichment) (E-score (-0.5 to 0.5)); higher = stronger / more preferred TF binding
# Test Conditions: protein concentration: 200 nM; construct: GST-full length
Over roughly 33,000 sequences, “E-score (-0.5 to 0.5)” has its median near -0.035; the highest 2% begin near 0.35. The list comes from a sample in which the highest values are over-represented; it also holds close analogues and randomly drawn sequences.
Assign PBM E-score to each entry below.
Answers are plain numbers.

> print(dat)
   seq.text  readout.value
1  AAGAGCAG        -0.0681
2  GTAACCCA         0.0499
3  CCCGAATA           0.14
4  ACCCCGTG          0.181
5  GCCTGGCC        0.00694
6  GCCCGGTA          0.102

Quick request: PBM E-score for each listed item, please.
1. GTTCCACA
2. TCCCGGAA
3. ACATGCTG
4. GCCCGGAC
5. AATCTGCT

Result:
1: 0.0178; 2: 0.463; 3: -0.158; 4: 0.282; 5: -0.15

* * *

# Target Or Test System: Pdr3 (UniProt P33200)
# Sequence: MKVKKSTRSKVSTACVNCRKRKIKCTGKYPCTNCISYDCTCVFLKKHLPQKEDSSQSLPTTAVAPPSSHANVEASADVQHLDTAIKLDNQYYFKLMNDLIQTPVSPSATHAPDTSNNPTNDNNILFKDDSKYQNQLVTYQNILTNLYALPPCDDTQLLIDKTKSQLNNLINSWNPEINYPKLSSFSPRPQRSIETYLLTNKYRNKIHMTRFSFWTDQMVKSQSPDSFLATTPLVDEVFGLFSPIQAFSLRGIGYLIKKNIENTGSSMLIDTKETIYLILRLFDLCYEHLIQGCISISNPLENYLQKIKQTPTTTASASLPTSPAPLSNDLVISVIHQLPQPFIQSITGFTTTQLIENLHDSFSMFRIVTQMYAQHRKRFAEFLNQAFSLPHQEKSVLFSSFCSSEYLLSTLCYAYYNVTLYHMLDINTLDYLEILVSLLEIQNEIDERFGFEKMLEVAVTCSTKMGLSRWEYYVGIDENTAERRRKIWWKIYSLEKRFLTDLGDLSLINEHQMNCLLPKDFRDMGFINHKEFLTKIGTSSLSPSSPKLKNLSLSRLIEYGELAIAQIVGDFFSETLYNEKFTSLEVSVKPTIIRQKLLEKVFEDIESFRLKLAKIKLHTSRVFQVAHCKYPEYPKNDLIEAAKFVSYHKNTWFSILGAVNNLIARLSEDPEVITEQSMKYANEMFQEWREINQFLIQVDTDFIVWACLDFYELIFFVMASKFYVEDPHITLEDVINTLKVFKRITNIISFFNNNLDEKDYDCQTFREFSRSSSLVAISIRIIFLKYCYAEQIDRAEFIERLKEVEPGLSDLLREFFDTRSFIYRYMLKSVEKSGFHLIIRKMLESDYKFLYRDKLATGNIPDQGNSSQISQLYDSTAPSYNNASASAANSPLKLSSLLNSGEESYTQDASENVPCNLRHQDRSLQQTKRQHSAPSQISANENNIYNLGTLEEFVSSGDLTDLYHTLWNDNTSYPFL
# Assay Details: PBM E-score (8-mer binding enrichment) (E-score (-0.5 to 0.5)); higher = stronger / more preferred TF binding
# Test Conditions: protein concentration: 200 nM; construct: GST-full length
In all, about 33,000 sequences were measured (“E-score (-0.5 to 0.5)”: median about -0.035, highest 2% from about 0.35 on). For the sample, the highest values were picked, then their nearest neighbours and some sequences at random.
Recorded Endpoint: PBM E-score

Consider the reported PBM E-score for these sequences:
> print(dat)
   seq.text  readout.value
1  CGGAAGGC          0.369
2  AATTTCCC         0.0432

Would you mind listing PBM E-score for each of the following sequences?
1. CCGTACGA
2. GTCGCGAC
3. CTCGCGAC

Result:
1. 0.00505
2. 0.38
3. 0.0674

Batch request: PBM E-score for each of the following sequences.
1. CTAAGAAG
2. AGGGAAAC
3. AGGGAAAT
4. CAGAAGGC

Result:
[-0.0671, -0.104, -0.115, 0.0006]
